Cited source for all entries: patent US20200216495A1

Listing: IC50, Tau40 assay (ThT) of selected binders
Target: Tau40 P301L protein (human)
Test: cell-based or functional assay
Square brackets hold non-standard residues; d marks the D form. Ends that are not written are not given here.
Kindly answer with a numeric value in µM, unit omitted.

The cases that follow already have their IC50, Tau40 assay (ThT) on record.
Which IC50, Tau40 assay (ThT) is listed for [dL][dK][dR][dR][dI][dH][dY][dH] [lkrrihyh] ?
15.4

Which IC50, Tau40 assay (ThT) is listed for [dK][dL][dK][dI][dK][dW] [klkikw] ?
6.87

Next:
Which IC50, Tau40 assay (ThT) is listed for [dR][dI][dH][dY][dH][dL][dK][dI] [rihyhlki] ?
6.63

Which IC50, Tau40 assay (ThT) is listed for [dL][dK][dI][dA][dI][dH][dY] [lkiaihy] ?
2.96

Which IC50, Tau40 assay (ThT) is listed for [dR][dL][dR][dI][dR][dW] [rlrirw] ?
2.96

Which IC50, Tau40 assay (ThT) is listed for [dT][dR][dL][dR][dI][dH][dW] [trlrihw] ?
2.7

Which IC50, Tau40 assay (ThT) is listed for [dL][dK][dI][dR][dI][dH][dR][dH] [lkirihrh] ?
3.16

Which IC50, Tau40 assay (ThT) is listed for [dW][dR][dL][dK][dA][dR][dW] [wrlkarw] ?
3.23

Which IC50, Tau40 assay (ThT) is listed for [dE][dK][dI][dR][dI][dH][dY] [ekirihy] ?
5.58

Which IC50, Tau40 assay (ThT) is listed for [dW][dR][dL][dR][dT][dH][dW] [wrlrthw] ?
3.33

Which IC50, Tau40 assay (ThT) is listed for [dH][dR][dF][dK][dV][dQ][dL][dY] [hrfkvqly] ?
4.03

Which IC50, Tau40 assay (ThT) is listed for [dW][dR][dL][dR][dI][dE][dW] [wrlriew] ?
3.23

Which IC50, Tau40 assay (ThT) is listed for [dL][dK][dI][dR][dI][dH][dA] [lkiriha] ?
2.92

Which IC50, Tau40 assay (ThT) is listed for [dK][dI][dK][dI][dK][dW] [kikikw] ?
2.92
